experiment_description: protein stability index of a GFP-peptide fusion (yeast GPS) (PSI 1-4); higher = more stable; sorted into four equal gates, so the index is relative within each strain
measurement_setup: doa10∆
property_measured: protein stability index
Answer with a number only.

Some solved entries appear below for comparison.
> print(dat)
                    residue.sequence        property.measured  value.reported
1         VSKKWAAAAVCEKWAAS [RPL14A]  protein stability index            2.42
2          HGMTLRESFEDNVVRFL [RPO21]  protein stability index            3.27
3           LYKLNDKIAVAVAGLTA [PRE9]  protein stability index            2.29
4  GQLGLDDNDVPGPLPDT [YLR018C/POM34]  protein stability index            3.27
5          YPLWVMAKQLIRLANES [CSN12]  protein stability index            2.08

protein stability index lookup needed for KIPILAQHESFLRQKIC [RPN9] , thanks.
1.72

protein stability index lookup needed for DEKVTILVDSLTGNQLP [SWI1] , thanks.
2.76

protein stability index lookup needed for TDIEEGMRVGVDRSKYN [RPT1] , thanks.
3.13

protein stability index lookup needed for GNVIQFIYGEDGMDAAH [RPO21] , thanks.
2.89

protein stability index lookup needed for EDSSILQSIVNEISRNG [PCI8] , thanks.
3.13

protein stability index lookup needed for YKNHELLKLERKKTEAV [SNF2] , thanks.
3.14

----------
experiment_description: protein stability index of a GFP-peptide fusion (yeast GPS) (PSI 1-4); higher = more stable; sorted into four equal gates, so the index is relative within each strain
measurement_setup: doa10∆
Binary classification by protein stability index, with 3 as an inclusive lower bound for y; all other cases are n.

> print(dat)
           residue.sequence  assigned.category
1  ETELPTLSLPDSQDYIL [SMC1]                  y
2  NMFGDYSNEPFNTNFDD [SNF6]                  y
3  KSKLFEWKSEFVVPTFG [SNM1]                  n

In plain terms: is recorded protein stability index at least 3 for LNWFRTTNMNVNNCIWA [RGR1] ?
n

----------
Reported protein stability index values follow for various sequences
experiment_description: protein stability index of a GFP-peptide fusion (yeast GPS) (PSI 1-4); higher = more stable; sorted into four equal gates, so the index is relative within each strain
measurement_setup: san1∆
Answer with a number only.

> print(dat)
                   residue.sequence  value.reported
1         KGKARLGTLVNQKTSAV [RPL8A]            3.15
2  VAADGKLVTYIVKFKQK [YLR335W/NUP2]            2.09

Then this sequence:
protein stability index lookup needed for QPDANKKKRSRTSATRE [ISW2] , thanks.
3.5

----------
experiment_description: protein stability index of a GFP-peptide fusion (yeast GPS) (PSI 1-4); higher = more stable; sorted into four equal gates, so the index is relative within each strain
measurement_setup: doa10∆
Binary classification by protein stability index, with 3 as an inclusive lower bound for 1; all other cases are 0.

Use these answered entries as a reference point.
> print(dat)
            residue.sequence  assigned.category
1   TIFSVMVEWLESRSFSP [PRP8]                  0
2  VTFIFGELKRGNESVKP [MED11]                  1
3   RSIRGSFTSQGTISIQL [MTR3]                  0

In plain terms: is recorded protein stability index at least 3 for DELETKAEKKVELHGKR [PRP8] ?
0

In plain terms: is recorded protein stability index at least 3 for PLLRKVVDRESDIPKTT [PRE4] ?
0

In plain terms: is recorded protein stability index at least 3 for FQITLSSDDLQNCWSLI [SSN8] ?
0

----------
experiment_description: protein stability index of a GFP-peptide fusion (yeast GPS) (PSI 1-4); higher = more stable; sorted into four equal gates, so the index is relative within each strain
measurement_setup: san1∆
property_measured: protein stability index
Answer with a number only.

Some solved entries appear below for comparison.
> print(dat)
            residue.sequence  value.reported
1   YGTENKDGEDIIFNYVP [CSL4]            2.92
2  HLSSKTGLHFGRLSLRS [QCR10]            3.06
3   TGKERSKKRKLNSLTNL [SNM1]            2.89
4  KLSIAEERDRRRAQQGL [RPS4A]            2.49
5   SGKLRDYQVQGLNWLIS [ISW2]            2.33
6   RRLPMTMFTAEQSELLK [SNF2]            2.83

protein stability index lookup needed for PEESKGSFKYITARSAF [SWP82] , thanks.
3.1

protein stability index lookup needed for SSEFVSQDTKVICSVTG [RRP46] , thanks.
2.43

protein stability index lookup needed for KGSRQCRVCSSHTGLVR [RPS29B] , thanks.
2.66

protein stability index lookup needed for GLVHDLCHPKKEKYGLA [SMC1] , thanks.
2.81

protein stability index lookup needed for WNSLMYALQSVKLPRAF [RRP43] , thanks.
1.2

----------
Reported protein stability index values follow for various sequences
experiment_description: protein stability index of a GFP-peptide fusion (yeast GPS) (PSI 1-4); higher = more stable; sorted into four equal gates, so the index is relative within each strain
measurement_setup: doa10∆
Answer with a number only.

Some solved entries appear below for comparison.
> print(dat)
            residue.sequence        property.measured  value.reported
1   TDAHTPLARNYIKSMDL [RPR2]  protein stability index            2.67
2  KKIGCYMFANLEFSIYH [CSN12]  protein stability index            2.07

protein stability index lookup needed for GMNLLSNLSQNVVPYHR [SWI1] , thanks.
1.88

protein stability index lookup needed for AFPKDDRSKPVALTSFL [RPL3] , thanks.
2.77

protein stability index lookup needed for LPFYAILRSIPDKLLGV [COB] , thanks.
2.59

protein stability index lookup needed for QILENYNALFQQNIKFR [YJL039C/NUP192] , thanks.
2.73

protein stability index lookup needed for VPHYNRLDSYKVIEQPI [RPL25] , thanks.
1.8

protein stability index lookup needed for QAINLGQVVLTPLTFAL [RPL14A] , thanks.
1.53

----------
experiment_description: protein stability index of a GFP-peptide fusion (yeast GPS) (PSI 1-4); higher = more stable; sorted into four equal gates, so the index is relative within each strain
measurement_setup: ubr1∆
Binary classification by protein stability index, with 3 as an inclusive lower bound for Criterion met; all other cases are Criterion not met.

> print(dat)
                   residue.sequence  assigned.category
1          HSKRELDSGDDQPQSSE [BRR2]      Criterion met
2  PSTNAQNVNVPSAFNFT [YOR098C/NUP1]  Criterion not met
3         SVRTAVFSALKNLISRI [ECM29]  Criterion not met
4         DSEGSIKQTSDESTIKR [ECM29]      Criterion met
5          DWFTYSYFYRRIHVNPS [BRR2]  Criterion not met

In plain terms: is recorded protein stability index at least 3 for FVSESPSFVKSGKLRDY [ISW2] ?
Criterion not met

----------
experiment_description: protein stability index of a GFP-peptide fusion (yeast GPS) (PSI 1-4); higher = more stable; sorted into four equal gates, so the index is relative within each strain
measurement_setup: san1∆
property_measured: protein stability index
Answer with a number only.

Some solved entries appear below for comparison.
> print(dat)
            residue.sequence  value.reported
1  WRSKRIEQLFPVRPVRV [RPC53]            3.21
2   YNMYDAYGNWFNGLKPL [PRP8]             2.9
3   LKEPVEDIIKRTSPIDN [NUT2]            2.64

Then this sequence:
protein stability index lookup needed for CSNPTCGAGVFLANHKD [RPS31] , thanks.
2.57

----------
experiment_description: protein stability index of a GFP-peptide fusion (yeast GPS) (PSI 1-4); higher = more stable; sorted into four equal gates, so the index is relative within each strain
measurement_setup: pdr5∆
property_measured: protein stability index

> print(dat)
           residue.sequence        property.measured  value.reported
1  LIEPLPTESYLQYIIHD [BRR2]  protein stability index            2.96

protein stability index lookup needed for CLMRSLHKLELKAKNQE [DSN1] , thanks.
1.31

protein stability index lookup needed for EFLPLSLHILMIFWNDI [SRB8] , thanks.
1.34

protein stability index lookup needed for AGYTTHLMKRIQKGPVR [RPS17A] , thanks.
2.97

protein stability index lookup needed for ALQNLSQLPITPMTRIS [YGL172W/NUP49] , thanks.
1.95

protein stability index lookup needed for VGLVMFSQFWYWFPLAH [RPN2] , thanks.
1.39

protein stability index lookup needed for FNTLVRIMSTRCMMAAQ [DIS3] , thanks.
1.73

protein stability index lookup needed for VSLGTSIMAVTFKDGVI [PRE3] , thanks.
3.12

These data points were gathered from the supplement of paper PMC9732359.
